biological target: Phosphodiesterase 1 (Homo sapiens, UniProt P54750+Q01064+Q14123); test: Inhibitory concentration against Phosphodiesterase type 1; assay type: protein assay
So I've got a bunch of compounds here, and I need their IC50 values.

Q: State the recorded IC50 for this entry: O=C(Cc1csc(NC(=O)Cc2cccc(C(F)(F)F)c2)n1)NO
Ans: > 10 µM

Q: State the recorded IC50 for this entry: O=C(Cc1csc(NC(=O)c2ccccc2)n1)NO
Ans: > 10 µM

Q: State the recorded IC50 for this entry: Cc1nc(NC(=O)c2cccc(COc3ccccc3)n2)sc1C(=O)NO
Ans: > 10 µM

Q: State the recorded IC50 for this entry: O=C(Cc1csc(NC(=O)COc2ccccc2)n1)NO
Ans: > 10 µM

Q: State the recorded IC50 for this entry: CCc1cc(C(C)=O)c(O)cc1OCc1cccc(C(=O)Nc2nc(CC(=O)NO)cs2)n1
Ans: 0.087 µM

Q: State the recorded IC50 for this entry: O=C(Nc1nc(C2(C(=O)NO)CC2)cs1)c1cccc(COc2ccccc2)n1
Ans: 0.63 µM

Q: State the recorded IC50 for this entry: COc1ccc2c(c1)c(CC(=O)Nc1nc(CC(=O)NO)cs1)c(C)n2C(=O)c1ccc(Cl)cc1
Ans: 2.8 µM

Q: State the recorded IC50 for this entry: O=C(O)Cc1cccc(NC(=O)c2cccc(COc3ccccc3)n2)n1
Ans: > 10 µM

Q: State the recorded IC50 for this entry: COc1ccc(NC(=O)c2cccc(COc3ccccc3)n2)cc1C(=O)NO
Ans: > 10 µM

Q: State the recorded IC50 for this entry: O=C(Cc1csc(NC(=O)c2cnccc2Oc2ccc(Cl)cc2)n1)NO
Ans: 2.67 µM

Q: State the recorded IC50 for this entry: Cc1c(NC(=O)c2cccc(COc3ccccc3)n2)cccc1C(=O)NO
Ans: > 10 µM

Q: State the recorded IC50 for this entry: CC(C)(C(=O)NO)c1csc(NC(=O)c2cccc(COc3ccccc3)n2)n1
Ans: 0.67 µM

Q: State the recorded IC50 for this entry: O=C(Cc1csc(NC(=O)Nc2cccc3ccccc23)n1)NO
Ans: > 10 µM

Q: State the recorded IC50 for this entry: COc1ccc2c(c1)OC(=O)CC2CC(=O)Nc1nc(CC(=O)NO)cs1 (configuration not stated)
Ans: > 10 µM

Q: State the recorded IC50 for this entry: COc1cc(OC)c(OC)c(C(=O)Nc2nc(CC(=O)NO)cs2)c1
Ans: > 10 µM

Q: State the recorded IC50 for this entry: CCCCC(C(=O)NO)c1csc(NC(=O)c2cccc(COc3ccccc3)n2)n1 (configuration not stated)
Ans: 0.2 µM

Q: State the recorded IC50 for this entry: O=C(Cc1cccc(NC(=O)c2cccc(COc3ccccc3)n2)c1)NO
Ans: 2.41 µM

Q: State the recorded IC50 for this entry: CN(C)c1cccc(C(=O)Nc2nc(CC(=O)NO)cs2)c1
Ans: > 10 µM

Q: State the recorded IC50 for this entry: O=C(Cc1cccc(NC(=O)c2cccc(COc3ccccc3)n2)n1)NO
Ans: > 10 µM

Q: State the recorded IC50 for this entry: O=C(Nc1nc(C2(C(=O)O)CCOCC2)cs1)c1cccc(COc2ccccc2)n1
Ans: > 10 µM

Q: State the recorded IC50 for this entry: Cc1cccc(C(=O)Nc2nc(CC(=O)NO)cs2)c1Br
Ans: 3.87 µM

Q: State the recorded IC50 for this entry: CC(C)CC(C(=O)O)c1csc(NC(=O)c2cccc(COc3ccccc3)n2)n1 (configuration not stated)
Ans: > 10 µM
